// kon lookup, one value per entry
- tested-target: T1, recombinant RSV protein G, G(B): residues 66-292 of strain 18537 (human respiratory syncytial virus …, UniProt P20896 66-292)
- T1 construct: also called soluble recombinant G protein; recombinant protein G
- T1 sequence: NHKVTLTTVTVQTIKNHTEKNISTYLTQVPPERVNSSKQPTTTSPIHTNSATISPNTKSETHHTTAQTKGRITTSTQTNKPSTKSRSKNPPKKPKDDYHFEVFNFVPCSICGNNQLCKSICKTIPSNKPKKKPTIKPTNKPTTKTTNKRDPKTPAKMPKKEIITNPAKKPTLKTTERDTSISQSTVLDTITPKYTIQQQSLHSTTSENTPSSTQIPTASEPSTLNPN
- assay-notes: SPR Biacore 3000, Fab over amine-coupled recombinant protein G
Use M⁻¹ s⁻¹ as the unit, but write only the number.

Example binders with recorded kon:
binder | kon / M⁻¹ s⁻¹
Fab fragment of antibody 816 (Fab) VH: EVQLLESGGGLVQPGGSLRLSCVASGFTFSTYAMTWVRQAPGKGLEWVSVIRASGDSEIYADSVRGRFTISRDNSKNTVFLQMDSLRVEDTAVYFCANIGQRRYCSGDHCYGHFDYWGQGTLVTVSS light: DIVMTQSPLSLPVTPGEPASISCRSSQSLLHSDGRYYVDWYLQKPGQSPHLLIYLASNRASGVPDRFTGSGSGTDFTLKISRVEAEDVGVYYCMQGLHTPWTFGQGTKVDIKRTVAAPSVFIFPPSDEQLKSGTASVVCLLNNFYPREAKVQWKVDNALQSGNSQESVTEQDSKDSTYSLSSTLTLSKADYEKHKVYACEVTHQGLSSPVTKSFNRGEC | 2.02e+06
Fab fragment of antibody 859 (Fab, also called Fab clone 859) VH: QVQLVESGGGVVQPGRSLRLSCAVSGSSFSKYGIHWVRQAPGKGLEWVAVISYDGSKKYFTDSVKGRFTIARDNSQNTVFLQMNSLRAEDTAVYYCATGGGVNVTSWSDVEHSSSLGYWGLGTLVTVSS light: DIQMTQSPSSLSASVGDRVTITCRASQGIRNYLAWYQQKPGKVPKLLVFAASTLQSGVPSRFSGSGSGTDFTLTISSLQPEDVATYYCQRYNSAPLTFGGGTKVEIKRTVAAPSVFIFPPSDEQLKSGTASVVCLLNNFYPREAKVQWKVDNALQSGNSQESVTEQDSKDSTYSLSSTLTLSKADYEKHKVYACEVTHQGLSSPVTKSFNRGEC | 380000
Fab fragment of antibody 838 (Fab, also called Fab clone 838) VH: QVQLVESGGGVVQPGTSLRLSCAASGFTFSTFGMHWVRQAPGKGLEWVAVISYDGNKKYYADSVKGRFTISRDNSKNTLYLQVNSLRVEDTAVYYCAAQTPYFNESSGLVPDWGQGTLVTVSS light: DIQMTQSPSSLSASVGDRVSITCRASQGISNYLAWYQQKPGKVPKLLIYAASTLQSGVPSRFSGSGSGTDFTLTISSLQPEDVATYYCQKYNSAPQTFGQGTKVEIKRTVAAPSVFIFPPSDEQLKSGTASVVCLLNNFYPREAKVQWKVDNALQSGNSQESVTEQDSKDSTYSLSSTLTLSKADYEKHKVYACEVTHQGLSSPVTKSFNRGEC | 264000

// next entry
Dear colleague, please send me the reported kon for Fab fragment of antibody 796 (Fab, also called Fab clone 796) VH: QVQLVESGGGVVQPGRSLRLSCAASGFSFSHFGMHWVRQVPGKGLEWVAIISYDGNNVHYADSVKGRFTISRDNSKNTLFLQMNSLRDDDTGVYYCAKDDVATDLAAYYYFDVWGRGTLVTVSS light: DIVMTQTPLSLSVTPGQPASISCRSSQSLLRSDGKTFLYWYLQKPGQSPQPLMYEVSSRFSGVPDRFSGSGSGADFTLNISRVETEDVGIYYCMQGLKIRRTFGPGTKVEIKRTVAAPSVFIFPPSDEQLKSGTASVVCLLNNFYPREAKVQWKVDNALQSGNSQESVTEQDSKDSTYSLSSTLTLSKADYEKHKVYACEVTHQGLSSPVTKSFNRGEC when you can. 833000
